# system-name: Acetylcholinesterase (Electrophorus electricus, UniProt O42275)
# Sequence (O42275 whole entry): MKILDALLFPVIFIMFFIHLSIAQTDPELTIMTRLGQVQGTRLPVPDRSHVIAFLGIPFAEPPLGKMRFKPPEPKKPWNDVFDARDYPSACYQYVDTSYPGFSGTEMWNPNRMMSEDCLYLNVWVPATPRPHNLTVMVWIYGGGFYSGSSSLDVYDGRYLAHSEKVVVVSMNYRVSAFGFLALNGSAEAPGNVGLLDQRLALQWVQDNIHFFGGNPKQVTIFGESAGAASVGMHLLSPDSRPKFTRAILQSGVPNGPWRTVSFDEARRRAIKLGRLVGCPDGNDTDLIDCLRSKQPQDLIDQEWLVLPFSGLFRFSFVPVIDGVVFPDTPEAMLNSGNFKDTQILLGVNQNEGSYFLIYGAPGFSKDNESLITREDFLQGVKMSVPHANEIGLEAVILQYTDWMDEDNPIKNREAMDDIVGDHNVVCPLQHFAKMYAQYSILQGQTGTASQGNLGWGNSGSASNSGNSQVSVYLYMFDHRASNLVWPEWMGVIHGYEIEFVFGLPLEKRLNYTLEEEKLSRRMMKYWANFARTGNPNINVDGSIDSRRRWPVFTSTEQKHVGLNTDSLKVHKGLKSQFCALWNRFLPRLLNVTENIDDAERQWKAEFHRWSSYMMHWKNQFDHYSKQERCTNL
# test-protocol: Inhibition of electric eel AChE using ATC iodide substrate by DTNB based assay
# conditions: read-out: IC50
Please assign a class to every record based on measured IC50, with ranges band 1: < 3 µM; band 2: ≥ 3 µM and < 7 µM; band 3: ≥ 7 µM

Solved entries:
| sample-smiles | category-label |
| --- | --- |
| O=c1c2cc(OCc3ccccc3)ccc2nc2n1CCCN2CCCN1CCCCC1 | band 1 |
| COc1cccc(NC(=O)Oc2ccc3c(c2)C(=O)N2CCCN=C2N3C)c1 | band 1 |
| CCCCCCCNC(=O)Oc1ccc2c(c1)CN1CCCN(C)C1=N2 | band 2 |
| COc1cccc(NC(=O)Oc2ccc3nc4n(c(=O)c3c2)CCCN4CCCN2CCCCC2)c1 | band 3 |
| COc1cccc(NC(=O)Oc2ccc3nc4n(c(=O)c3c2)CCCN4C)c1 | band 2 |
| CCCCNC(=O)Oc1ccc2c(c1)C(=O)N1CCCN=C1N2C | band 2 |

Hi there! Could you help me figure out the category for CC(C)c1ccc(NC(=O)Oc2ccc3nc4n(c(=O)c3c2)CCCN4CCCN2CCCCC2)cc1 please?
band 1

Hi there! Could you help me figure out the category for O=C1c2ccccc2NC2=NCCCN12 please?
band 3

Hi there! Could you help me figure out the category for CN1C2=NCCCN2C(=O)c2cc(OC(=O)Nc3ccc(C(C)(C)C)cc3)ccc21 please?
band 1

Hi there! Could you help me figure out the category for CN1CCCn2c1nc1ccc(OCc3ccccc3)cc1c2=O please?
band 3

Hi there! Could you help me figure out the category for CCCCCCCNC(=O)Oc1ccc2c(c1)C(=O)N1CCCN=C1N2C please?
band 2

====

# system-name: Cholinesterase (Equus caballus, UniProt P81908)
# Sequence (P81908 whole entry): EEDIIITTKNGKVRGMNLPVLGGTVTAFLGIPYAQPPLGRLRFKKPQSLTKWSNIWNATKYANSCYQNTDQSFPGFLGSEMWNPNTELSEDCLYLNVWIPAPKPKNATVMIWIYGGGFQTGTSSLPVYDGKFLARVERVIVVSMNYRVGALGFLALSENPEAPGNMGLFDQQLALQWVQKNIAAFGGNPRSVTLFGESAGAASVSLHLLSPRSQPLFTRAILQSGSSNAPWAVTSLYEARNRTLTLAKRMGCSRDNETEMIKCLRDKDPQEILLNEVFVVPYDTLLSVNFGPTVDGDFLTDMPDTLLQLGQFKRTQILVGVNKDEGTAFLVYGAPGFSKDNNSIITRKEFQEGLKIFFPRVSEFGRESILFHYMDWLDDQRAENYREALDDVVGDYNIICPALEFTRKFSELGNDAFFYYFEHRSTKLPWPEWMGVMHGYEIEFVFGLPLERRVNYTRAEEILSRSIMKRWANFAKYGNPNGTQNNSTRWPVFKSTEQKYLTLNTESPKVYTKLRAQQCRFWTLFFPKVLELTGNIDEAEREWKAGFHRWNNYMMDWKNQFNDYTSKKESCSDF
# test-protocol: Inhibition of equine serum BChE using ATC iodide substrate by DTNB based assay
# conditions: read-out: IC50
test-readout: log10 of IC50 (log10 of the value in µM)
The common logarithm of IC50 in µM is what is listed.

Answered examples (5):
| sample-smiles | log10 of IC50 |
| --- | --- |
| COc1cccc(NC(=O)Oc2ccc3nc4n(c(=O)c3c2)CCCN4C)c1 | 1.10 |
| O=c1c2cc(OCc3ccccc3)ccc2nc2n1CCCN2CCCN1CCCCC1 | -0.09 |
| CCCCCCCNC(=O)Oc1ccc2nc3n(c(=O)c2c1)CCCN3Cc1ccccc1 | 1.40 |
| CCCCNC(=O)Oc1ccc2nc3n(c(=O)c2c1)CCCN3CCCN1CCCCC1 | 0.04 |
| CN1CCCn2c1nc1ccc(OCc3ccccc3)cc1c2=O | 1.91 |

Requested read-out: log10 of IC50. Entry: CCCCCCCNC(=O)Oc1ccc2c(c1)CN1CCCN(C)C1=N2
-0.20

Requested read-out: log10 of IC50. Entry: O=c1c2cc(O)ccc2nc2n1CCCN2CCCN1CCCCC1
1.36

Requested read-out: log10 of IC50. Entry: COc1cccc(NC(=O)Oc2ccc3nc4n(c(=O)c3c2)CCCN4CCCN2CCCCC2)c1
-0.35

Requested read-out: log10 of IC50. Entry: CCCCCCCNC(=O)Oc1ccc2c(c1)C(=O)N1CCCN=C1N2C
-0.85

====

# system-name: Acetylcholinesterase (Electrophorus electricus, UniProt O42275)
# test-protocol: Inhibition of electric eel AChE using ATC iodide substrate by DTNB based assay
# conditions: read-out: IC50
test-readout: IC50

| sample-smiles | experimental-result |
| --- | --- |
| CCCCNC(=O)Oc1ccc2nc3n(c(=O)c2c1)CCCN3CCCN1CCCCC1 | 6.91 µM |
| O=c1c2cc(OCc3ccccc3)ccc2nc2n1CCCN2 | 19.3 µM |
| CN1C2=NCCCN2C(=O)c2cc(OCc3ccccc3)ccc21 | 0.7 µM |
| CC(C)c1ccc(NC(=O)Oc2ccc3c(c2)C(=O)N2CCCN=C2N3C)cc1 | 0.0837 µM |

// switching to the query compound
Entry O=c1c2cc(O)ccc2nc2n1CCCN2CCCN1CCCCC1 , system Acetylcholinesterase (Electrophorus electricus, UniProt O42275): what IC50 was measured?
22.9 µM
